Just for reference, patent US20100204182A1 is where these values come from.

Answer each item with its documented Ki.
Molecular target: rat NTPDase1 (Rattus norvegicus)
Sequence (P97687 1-511): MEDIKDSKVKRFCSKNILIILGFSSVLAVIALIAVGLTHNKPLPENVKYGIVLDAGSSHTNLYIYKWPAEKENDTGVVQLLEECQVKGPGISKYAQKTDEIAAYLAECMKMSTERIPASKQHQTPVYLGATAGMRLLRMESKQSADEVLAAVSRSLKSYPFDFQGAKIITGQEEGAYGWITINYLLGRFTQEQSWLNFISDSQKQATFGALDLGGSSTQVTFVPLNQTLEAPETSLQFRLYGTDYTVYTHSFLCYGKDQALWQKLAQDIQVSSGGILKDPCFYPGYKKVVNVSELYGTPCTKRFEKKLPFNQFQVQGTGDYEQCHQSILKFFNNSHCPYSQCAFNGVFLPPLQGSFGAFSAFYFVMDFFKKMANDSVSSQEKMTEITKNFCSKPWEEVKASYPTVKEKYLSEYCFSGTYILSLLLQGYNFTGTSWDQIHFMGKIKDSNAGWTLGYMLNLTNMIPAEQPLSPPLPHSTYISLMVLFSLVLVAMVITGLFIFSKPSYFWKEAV
Quick reminder: number only, in µM, skip the unit.

Data point: Cc1nc(N=Nc2ccc(S(=O)(=O)O)cc2S(=O)(=O)O)c(COP(=O)(O)O)c(C=O)c1O ; Ki = 46

Data point: CCN(CC)c1ncnc2c1ncn2C1OC(COP(=O)(O)OP(=O)(O)C(Br)(Br)P(=O)(O)O)C(O)C1O (stereo not drawn) ; Ki = 27

Data point: Cc1ccc(C(=O)Nc2ccc(S(=O)(=O)O)c3cc(S(=O)(=O)O)cc(S(=O)(=O)O)c23)cc1NC(=O)c1cccc(NC(=O)Nc2cccc(C(=O)Nc3cc(C(=O)Nc4ccc(S(=O)(=O)O)c5cc(S(=O)(=O)O)cc(S(=O)(=O)O)c45)ccc3C)c2)c1 ; Ki = 300

---

Target: human NTPDase2 (Homo sapiens)
Sequence (Q9Y5L3 1-495): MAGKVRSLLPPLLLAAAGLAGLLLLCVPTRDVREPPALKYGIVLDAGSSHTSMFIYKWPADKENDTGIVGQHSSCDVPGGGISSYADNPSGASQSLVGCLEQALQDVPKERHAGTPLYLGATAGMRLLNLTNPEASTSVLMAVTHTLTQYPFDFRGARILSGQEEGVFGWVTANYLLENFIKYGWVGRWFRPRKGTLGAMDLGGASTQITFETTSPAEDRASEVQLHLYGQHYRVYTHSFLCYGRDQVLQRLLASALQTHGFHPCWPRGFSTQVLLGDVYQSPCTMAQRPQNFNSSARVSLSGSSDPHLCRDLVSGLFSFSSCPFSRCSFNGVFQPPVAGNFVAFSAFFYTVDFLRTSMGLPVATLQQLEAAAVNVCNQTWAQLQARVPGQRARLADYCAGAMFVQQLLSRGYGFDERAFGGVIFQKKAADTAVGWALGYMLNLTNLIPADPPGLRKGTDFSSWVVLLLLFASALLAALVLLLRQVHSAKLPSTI
Assay: NTPDase inhibition assay by capillary electrophoresis (CE), NTPDase2
Type: biochemical
Details: human NTPDase2; CE method; ATP 320 μM; Km 70 μM; read-out: NTPDase2 Ki [μM] ± SEM
reported.property: Ki (µM)
Quick reminder: number only, in µM, skip the unit.

Data point: CCOP(=O)(CNC(=O)CNC(=O)[C@H]1O[C@@H](n2ccc(=O)[nH]c2=O)C(O)C1O)OCC (stereo in doubt) ; Ki = 71.7

Data point: CCOP(=O)(CCNC(=O)CNC(=O)[C@H]1O[C@@H](n2ccc(=O)[nH]c2=O)C(O)C1O)OCC (stereo in doubt) ; Ki = 116

Data point: CCOP(=O)(Cc1ccc(NC(=O)CCCNC(=O)[C@H]2O[C@@H](n3ccc(=O)[nH]c3=O)C(O)C2O)cc1)OCC (stereo in doubt) ; Ki = 210

Data point: CCOP(=O)(Cc1ccc(NC(=O)CCNC(=O)[C@H]2O[C@@H](n3cnc4c(N)ncnc43)C(O)C2O)cc1)OCC (stereo in doubt) ; Ki = 1440

Data point: CCOP(=O)(CNC(=O)CCCNC(=O)[C@H]1O[C@@H](n2ccc(=O)[nH]c2=O)C(O)C1O)OCC (stereo in doubt) ; Ki = 29.2

Data point: CCOP(=O)(Cc1ccc(NC(=O)CNC(=O)[C@H]2O[C@@H](n3ccc(=O)[nH]c3=O)C(O)C2O)cc1)OCC (stereo in doubt) ; Ki = 8.2

Data point: CCOP(=O)(CNC(=O)CCNC(=O)[C@H]1O[C@@H](n2ccc(=O)[nH]c2=O)[C@H](O)[C@@H]1O)OCC ; Ki = 167

Data point: CCOP(=O)(Cc1ccc(NC(=O)CCNC(=O)[C@H]2O[C@@H](n3ccc(=O)[nH]c3=O)C(O)C2O)cc1)OCC (stereo in doubt) ; Ki = 173

Data point: CCOP(=O)(Cc1ccc(NC(=O)CCCNC(=O)[C@H]2O[C@@H](n3cnc4c(N)ncnc43)C(O)C2O)cc1)OCC (stereo in doubt) ; Ki = 213
